Here, each record is paired with measured Z score data.
System: murine neural precursor cells (neurosphere cultures)
protocol-details: HTS of LOPAC library against secondary neurosphere cultures, MTT proliferation assay at 3 μM, day 7 (z score, P value)
Format: cell-based, mouse
details: LOPAC primary screen, neurosphere MTT proliferation, 3 μM, day 7
Where a name gives a salt, the structure may show the parent alone.
Lab note: write the figure by itself, no unit.

Q: Fill in reported Z score for this entry: CN1C2CCC1CC(OC(=O)c1cc(Cl)cc(Cl)c1)C2 (stereo not drawn) [3-Tropanyl-3,5-dichlorobenzoate]
Ans: −9.272

Q: Specify measured Z score for `COc1ccc2c(c1)c(CC(=O)O)c(C)n2C(=O)c1ccc(Cl)cc1` .
Ans: −0.356

Q: Please give measured Z score of the following entry: N[C@@H]1C[C@H]1c1ccccc1 [Tranylcypromine hydrochloride]
Ans: −1.441

Q: Provide Z score value for the following compound: CN(C)CCC(c1ccc(Br)cc1)c1ccccn1.O=C(O)/C=C\C(=O)O (racemic) [(±)-Brompheniramine maleate]
Ans: −3.530

Q: For the compound C=CCN1CC[C@]23c4c5ccc(O)c4O[C@H]2C(=O)CC[C@@]3(O)[C@H]1C5 [Naloxone hydrochloride] , give its reported Z score.
Ans: −10.137

Q: Note down Z score recorded for CS(=O)(=O)Nc1ccc([N+](=O)[O-])cc1Oc1ccccc1 [Nimesulide]
Ans: −2.395

---

Tested on: murine neural precursor cells (neurosphere cultures)
protocol-details: HTS of LOPAC library against secondary neurosphere cultures, MTT proliferation assay at 3 μM, day 7 (z score, P value)
Format: cell-based, mouse
details: LOPAC primary screen, neurosphere MTT proliferation, 3 μM, day 7
Counter-ions that a name gives are not always drawn.
assay-readout: Z score

Some solved entries appear below for comparison.
>>> value_observed("CCS(=O)(=O)Nc1cccc(C(=C2CCCCC2)c2cnc[nH]2)c1")
0.363
>>> value_observed("CC(=O)O.CSC(=N)NCCC[C@H](N)C(=O)O [S-Methyl-L-thiocitrulline acetate]")
"−1.751"
>>> value_observed("CCCn1c(=O)[nH]c(=O)c2[nH]cnc21")
"−1.094"

Q: Please supply the value of reported Z score for the item C[N+](C)(C)CCCCCCCCCC[N+](C)(C)C.[Br-].[Br-] [Decamethonium dibromide]
Ans: −1.572

Q: Tell me its Z score given `C[C@]12CC[C@@H](O)C[C@@H]1CC[C@@H]1[C@@H]2CC[C@]2(C)[C@@H](C(=O)CO)CC[C@@H]12` as the entry.
Ans: 0.444

Q: Please list Z score recorded for the compound CC1CN(S(=O)(=O)c2cccc3cnccc23)CCN1.Cl.Cl (centres unmarked)
Ans: 0.451

Q: Recall and state the measured Z score for CCN(CC)CCCC(C)Nc1c2ccc(Cl)cc2nc2ccc(OC)cc12 (centres unmarked) [Quinacrine dihydrochloride] .
Ans: −9.712

Q: Output measured Z score for this item: `CCCCC1C(=O)N(c2ccccc2)N(c2ccccc2)C1=O`
Ans: 0.790

Q: Write down Z score measured for item O=C1NCC2(CCN(CCc3ccccc3)CC2)O1 [Fenspiride hydrochloride]
Ans: −0.576

---

Test system: murine neural precursor cells (neurosphere cultures)
protocol-details: HTS of LOPAC library against secondary neurosphere cultures, MTT proliferation assay at 3 μM, day 7 (z score, P value)
Assay type: cell-based, mouse
Below, each of the compounds is paired with its reported Z score value.

>>> value_observed("N[C@H](CCCCCP(=O)(O)O)C(=O)O [D(−)-2-Amino-7-phosphonoheptanoic acid]")
0.985
>>> value_observed("NCCCCCC(=O)O [6-Aminohexanoic acid]")
"−2.179"
>>> value_observed("O=C(O)CN(CCOCCOCCN(CC(=O)O)CC(=O)O)CC(=O)O")
1.507
>>> value_observed("O=P1(N(CCCl)CCCl)NCCCO1 (stereo not shown) [Cyclophosphamide monohydrate]")
"−0.976"
>>> value_observed("Cl.Cl.Cl.Cl.NCCCNCCCCNCCCN [Spermine tetrahydrochloride]")
0.394

Q: Please indicate Z score recorded for Cl.N=C(N)c1ccccc1 [Benzamidine hydrochloride]
Ans: 1.509

Q: State its Z score: C[C@]12CC[C@@H](O)C[C@@H]1CC[C@@H]1[C@@H]2CC[C@]2(C)C(=O)CC[C@@H]12 [Androsterone]
Ans: 1.947
